Data provenance: PubChem BioAssay

# test method notes: basal RPMI8226 mitochondrial membrane potential changes, profiling panel, cell-based, JC-1 fluorescence, 24 h, 100 nL compound (AID 1169); further: test concentration not given here
# condition notes: RPMI8226 myeloma, JC-1 mitochondrial potential fluorescence, higher = more signal
recorded endpoint: z-score

Some entries whose results are on file:
[[record]]
molecule = "COc1ccccc1CN1C(=O)c2ccccc2[C@](Cc2ccccc2I)(C(=O)NCC(F)(F)F)[C@@H]1c1ccc(CO)cc1"
result = -0.68

[[record]]
molecule = "[N-]=[N+]=Nc1ccccc1[C@H]1OC(c2ccc(OCCCO)cc2)=N[C@@]1(CCS(=O)(=O)c1ccccc1)C(=O)NCCN1CCOCC1"
result = 0.184

[[record]]
molecule = "COC(=O)CCCCCCC(=O)Nc1ccc(NC(=O)CCCC[P+](c2ccccc2)(c2ccccc2)c2ccccc2)cc1"
result = -0.176


Fill blank: measured z-score of the molecule `CN(C)CCCCNC(=O)[C@@H]1C[C@@H]2C(=O)N[C@@H](Cc3ccccc3)C(=O)N2[C@@H]1c1cccc(OCCO)c1` is ____.
-0.0777

Fill blank: measured z-score of the molecule `COc1ccc([Si](C)(C)[C@H]2[C@H](CC(=O)N(CCO)Cc3ccccc3)O[C@@]3(C(=O)N(Cc4cccc(N5CCOC5=O)c4)c4ccccc43)[C@@H]2C)cc1` is ____.
-1.16

Fill blank: measured z-score of the molecule `CCCCCCc1nc(C2CC2)cc2c1[Si](C(C)C)(C(C)C)OC2` is ____.
-0.651

Fill blank: measured z-score of the molecule `COc1ccc([Si](C)(C)[C@H]2[C@H](CCn3cc([C@H](O)c4ccccc4)nn3)O[C@@]3(C(=O)N(Cc4ccc(N5C(=O)c6cccc7cccc5c67)cc4)c4ccccc43)[C@@H]2C)cc1` is ____.
-0.296

Fill blank: measured z-score of the molecule `COc1ccc(-c2cc3c(c(CCc4ccccc4)n2)[Si](C(C)C)(C(C)C)OC3)cn1` is ____.
-0.738

Fill blank: measured z-score of the molecule `Cc1ccc(S[C@]2(C(=O)O)CC(=O)N(C3Cc4ccccc4C3)[C@@H]2c2ccc(CO)cc2)cc1` is ____.
0.522

Fill blank: measured z-score of the molecule C=CCC(OC(C)=O)[C@@H]1[C@@H](N(Cc2cc3ccccc3o2)C(=O)c2ccc(C)cc2)c2cc(OCCCO)ccc2N1C(=O)Cc1ccc(OC)cc1 (some centres undefined) is ____.
0.83

Fill blank: measured z-score of the molecule `COCCOC(=O)N1C(=O)[C@@]2(c3cc(C#Cc4ccc(OC)cc4)ccc31)[C@H](c1ccc(O)cc1)N1[C@H](c3ccccc3)[C@H](c3ccccc3)OC(=O)[C@H]1[C@@H]2C(=O)N1CCCCCCC1` is ____.
-0.464

Fill blank: measured z-score of the molecule `COC(=O)[C@@]1(Cc2ccc(OC)cc2)[C@H]2c3cc(C(=O)N(C)C)n(C[C@H](O)CO)c3C[C@H]2CN1C(=O)c1ccccc1` is ____.
-0.847

Fill blank: measured z-score of the molecule CC(=O)c1ccc(C(O)C2C=CC3C(=O)N(c4ccccc4)C(=O)C3N2Nc2ccc(C#N)cc2)cc1 (centres undefined) is ____.
-0.257

Fill blank: measured z-score of the molecule `[N-]=[N+]=Nc1ccccc1C[C@]1(C(N)=O)N=C(c2ccc(OCCCO)cc2)O[C@H]1c1ccccc1N=[N+]=[N-]` is ____.
-1.21

* * *

# test method notes: CREB reporter modulators without forskolin, primary screen, cell-based, PC12, CRE-LacZ reporter, unstimulated (AID 1145)
# condition notes: no forskolin, luminescence, 4.5 h, higher = more signal, called active from +8 up or from −8 down
The compounds listed here are annotated with their z-score.
// return a plain number; no unit text

Some entries whose results are on file:
[[record]]
compound = "CC(=O)c1ccc(C(O)C2C=CC3C(=O)N(c4ccccc4)C(=O)C3N2Nc2ccc(C#N)cc2)cc1 (stereo unspecified)"
recorded_endpoint = "z-score"
quantitative_readout = 1.19

[[record]]
compound = "C=C(/C(=C/C[C@H](OC(C)=O)c1ccccc1OCCO)c1cc(C(=O)OC)ccc1OC)C(C)C"
recorded_endpoint = "z-score"
quantitative_readout = 13.6

[[record]]
compound = "COC(=O)[C@@]1(Cc2ccc(F)cc2)[C@H]2c3cc(C(=O)N(C)C)n(Cc4cc(F)cc5c4OCOC5)c3C[C@H]2CN1C(=O)c1ccccc1"
recorded_endpoint = "z-score"
quantitative_readout = 0.397


Fill blank: measured z-score of the compound `C=CC[C@]1(C(=O)NCCN2CCOCC2)N=C(c2ccc(OCCCO)cc2)O[C@H]1c1ccccc1CN=[N+]=[N-]` is ____.
2.01

Fill blank: measured z-score of the compound `COc1ccc([Si](C)(C)[C@H]2[C@H](CCO)O[C@@]3(C(=O)N(Cc4cccc(N5C(=O)COc6ccccc65)c4)c4ccccc43)[C@@H]2C)cc1` is ____.
2.41

Fill blank: measured z-score of the compound `CCOC(=O)C1=CC[C@@H](c2cccc(Cl)c2)N(S(=O)(=O)c2ccc(C)cc2)C1` is ____.
-0.574

Fill blank: measured z-score of the compound `[N-]=[N+]=NCc1ccccc1C[C@]1(C(N)=O)N=C(c2ccc(OCCCO)cc2)O[C@H]1c1ccccc1` is ____.
0.101

Fill blank: measured z-score of the compound `CC(=O)NCCCC[C@@H]1NC(=O)[C@H]2C[C@@H](C(=O)NCCCC[N+](C)(C)C)[C@@H](c3cccc(OCCO)c3)N2C1=O` is ____.
-0.667

Fill blank: measured z-score of the compound N#Cc1ccc(C(O)C2C=CC3C(=O)N(c4ccccc4)C(=O)C3N2Nc2ccccc2)cc1 (stereo unspecified) is ____.
-0.133

Fill blank: measured z-score of the compound O=C1C2C=CC(C(O)c3ccccc3)N(Nc3ccccc3F)C2C(=O)N1c1ccccc1 (stereo unspecified) is ____.
0.0707

* * *

# Tested on: Plasmodium falciparum Sir2 (PF13_0152, Sir2A)
# test method notes: pfSir2 binders on small-molecule microarrays, primary screen, biochemical, small-molecule microarray, 635 nm fluorescence (AID 1098);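 further: score merges spot fluorescence intensity with its signal-to-noise ratio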
# condition notes: small-molecule microarray binding, fluorescence 635 nm; higher = more signal
recorded endpoint: composite z-score
// return a plain number; no unit text

[[record]]
molecule = "C[N+](C)(C)CCCCCCNC(=O)[C@H]1C[C@H]2C(=O)NCC(=O)N2[C@H]1c1ccc(O)cc1"
quantitative_readout = 1.51


Consider now this further molecule.
Fill blank: measured composite z-score of the molecule `COc1cc2c(cc1OC)CN(C(=O)[C@@H]1[C@H]3C(=O)O[C@H](c4ccccc4)[C@H](c4ccccc4)N3[C@H](c3ccc(OCCO)cc3)[C@@]13C(=O)Nc1ccccc13)CC2` is ____.
1.41

* * *

The molecules listed here are annotated with their composite z-score.
# test method notes: small-molecule microarray binders of probe aWnt5a, primary screen, biochemical, biotinylated probe, 635/667 nm fluorescence (AID 1113);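 further: score merges 667 nm fluorescence intensity with signal-to-noise per printed feature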
# condition notes: higher = more signal
// return a plain number; no unit text

Some entries whose results are on file:
[[record]]
smiles_structure = "COC(=O)c1c(CC[C@@H](CO)NC(=O)N[C@H](Cn2cc(C3(O)CCCCC3)nn2)C(C)C)oc(C(C)=O)c1C(=O)OC"
quantitative_readout = 0.002

[[record]]
smiles_structure = "COC(=O)[C@@]1(Cc2ccccc2)[C@H]2c3cc(C(=O)N(C)C)n(CCc4ccc(O)c(OC)c4)c3C[C@H]2CN1C(=O)c1ccccc1"
quantitative_readout = 0.583


Fill blank: measured composite z-score of the molecule `COC(=O)[C@@]1(Cc2ccc(OC)cc2)[C@H]2c3cc(C(=O)N(C)C)n(Cc4ccc(Cl)c(C(F)(F)F)c4)c3C[C@H]2CN1C(=O)c1ccccc1` is ____.
0.235

* * *

# test method notes: small-molecule microarray binders of probe aCHRDL2, primary screen, biochemical, biotinylated probe, 635/667 nm fluorescence (AID 1100)
# condition notes: higher = more signal
recorded endpoint: composite z-score
// return a plain number; no unit text

Some entries whose results are on file:
[[record]]
molecule = "[N-]=[N+]=Nc1ccccc1[C@H]1OC(c2ccc(OCCCO)cc2)=N[C@@]1(CCS(=O)(=O)c1ccccc1)C(=O)NCCN1CCOCC1"
recorded_endpoint = "composite z-score"
quantitative_readout = 0.775

[[record]]
molecule = "CCOC(=O)C1=C[C@@H](c2ccccc2)N(S(=O)(=O)c2ccc(C)cc2)[C@H]1c1ccccc1Cl"
recorded_endpoint = "composite z-score"
quantitative_readout = -0.229

[[record]]
molecule = "CC(C)C(=C=CC[C@H](O)c1ccc(OCCO)cc1)C[C@H](O)c1ccccn1"
recorded_endpoint = "composite z-score"
quantitative_readout = -0.233


Consider now this further molecule.
Fill blank: measured composite z-score of the molecule `COC(=O)C(CC#Cc1ccc2c(c1)[C@]1(C(=O)N2)[C@H](c2ccccc2OCCO)N2[C@H](c3ccccc3)[C@H](c3ccccc3)OC(=O)[C@H]2[C@@H]1C(=O)NC[C@H](O)c1ccccc1)C(=O)OC` is ____.
0.702
